Molecular target: T1, human TL1A extracellular domain with N-terminal HIS and FLAG tag (human) (UniProt O95150)
T1 sequence: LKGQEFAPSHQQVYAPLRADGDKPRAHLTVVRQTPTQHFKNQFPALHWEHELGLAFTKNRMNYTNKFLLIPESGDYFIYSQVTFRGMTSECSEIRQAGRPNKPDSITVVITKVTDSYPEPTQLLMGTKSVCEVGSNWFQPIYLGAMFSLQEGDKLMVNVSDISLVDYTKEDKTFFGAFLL
Experiment: cell-based or functional assay
Quick reference: Antibody IC50, TL1A induced caspase potency assay in TF-1 cells of the listed items.
Note: unit µg/mL is implicit; provide only the numeric part.

Please look up its Antibody IC50, TL1A induced caspase potency assay in TF-1 cells: 320-184 (antibody, human IgG1, name in Kabat numbering, V domains shown, human IgG1, lambda) VH: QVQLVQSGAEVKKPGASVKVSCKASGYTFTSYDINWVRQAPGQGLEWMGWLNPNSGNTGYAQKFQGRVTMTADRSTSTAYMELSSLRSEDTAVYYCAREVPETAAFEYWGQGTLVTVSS VL: QSVLTQPPSVSGAPGQRVTISCTSSSSDIGAGLGVHWYQQLPGTAPKLLIEGYYNRPSGVPDRFSGSKSGTSASLTITGLAPEDEGDYYCQSYDGTLSALFGGGTKLTVLG
0.01

Others:
Please look up its Antibody IC50, TL1A induced caspase potency assay in TF-1 cells: 320-245 (antibody, human IgG1, name in Kabat numbering, V domains shown, human IgG1, lambda) VH: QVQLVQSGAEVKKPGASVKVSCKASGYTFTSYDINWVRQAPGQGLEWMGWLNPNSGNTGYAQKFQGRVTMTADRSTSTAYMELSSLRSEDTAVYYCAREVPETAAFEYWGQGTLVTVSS VL: QSVLTQPPSVSGAPGQRVTISCTSSSSDHGAGLGVHWYQQLPGTAPKLLIEGYYNRPSGVPDRFSGSKSGTSASLTITGLLPEDEGDYYCQSYDGTLSALFGGGTKLTVLG
0.54

Please look up its Antibody IC50, TL1A induced caspase potency assay in TF-1 cells: 320-280 (antibody, human IgG1, name in Kabat numbering, V domains shown, human IgG1, lambda) VH: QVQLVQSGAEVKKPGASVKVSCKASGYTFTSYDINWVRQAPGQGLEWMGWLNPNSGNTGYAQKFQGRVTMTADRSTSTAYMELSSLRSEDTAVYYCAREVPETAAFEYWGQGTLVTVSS VL: QSVLTQPPSVSGAPGQRVTISCTSSSSDIGAGHGVHWYQQLPGTAPKLLIEGYYNRPSGVPDRFSGSKSGTSASLTITGLLPEDEGDYYCQSYDGTLSALFGGGTKLTVLG
0.006
